System: biotinyl-Met-oxazolone
protocol_details: self-aminoacylation, catalytic enhancement (BMO) (fold over background); higher = more active; k-Seq, kA / k0A0; sequences stand for … in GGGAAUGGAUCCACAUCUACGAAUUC…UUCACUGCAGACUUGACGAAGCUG
This sample holds only a part of the variants without activity.
endpoint_label: self-aminoacylation
Answer with a number only.

// self-aminoacylation lookup, sequence = AAGUUUGCUAAAAGCCGCAAG [Fam3.1 aminoacylation ribozyme variant] , result: 0.604

response.value for AUUCCCCUAGGUAAUCGGGUG [Fam2.2 aminoacylation ribozyme variant] (field: self-aminoacylation) = 10.7

Record CCACACUUCCAGCAAUGGGUC [Fam1B.1 aminoacylation ribozyme variant] , field self-aminoacylation: 0.956

The sequence listed as AUUCACUUAGGUCAUCGGGCG [Fam2.2 aminoacylation ribozyme variant] shows self-aminoacylation equal to 3.18

For this sequence ( CUUCGCCUAGGUCAUCGGGUG [Fam2.2 aminoacylation ribozyme variant] ), measured self-aminoacylation is 3.41
